B1: FLAG-tagged FBXO44 FBA domain (FBXO44^FBA) [human] / RGS2^5–16 peptide (RGS2 degron, Met^5–Met^16) [not stated] (parent complex)
chain 1: FYFLRSLHRNLLHNPCAEEGFEFWSLDVNGGDEWKVEDLSRDQRKEFPNDQVKKYFVTSYYTCLKSQVVDLKAEGYWEELMDTTRPDIEVKDWFAARPDCGSKYQLCVQLLSSAHAPLGTFQPDPATIQQKSDAKWREVSHTFSNYPPGVRYIWFQHGGVDTHYWAGWYGPRVTNSSITIGP
chain 2: MFLAVQHDCRPM

Variants of: B1
Procedure Text: peptide microarray (PEPperPRINT), α-FLAG fluorescence; three independent experiments with three technical replicates each; parent: 100; read off a plot
Each entry below carries its recorded percent of parent.

Some variants with recorded percent of parent:
1) chain 2 R10W ... ~120 % Parent
2) chain 2 R10L ... ~82 % Parent
3) chain 2 R10N ... ~82 % Parent

Lab book: percent of parent of chain 2 R10E noted as ~110 % Parent

Lab book: percent of parent of chain 2 R10G noted as ~78 % Parent
